Assayed target: human JAK2 (Homo sapiens (Human))
Sequence (O60674 whole entry): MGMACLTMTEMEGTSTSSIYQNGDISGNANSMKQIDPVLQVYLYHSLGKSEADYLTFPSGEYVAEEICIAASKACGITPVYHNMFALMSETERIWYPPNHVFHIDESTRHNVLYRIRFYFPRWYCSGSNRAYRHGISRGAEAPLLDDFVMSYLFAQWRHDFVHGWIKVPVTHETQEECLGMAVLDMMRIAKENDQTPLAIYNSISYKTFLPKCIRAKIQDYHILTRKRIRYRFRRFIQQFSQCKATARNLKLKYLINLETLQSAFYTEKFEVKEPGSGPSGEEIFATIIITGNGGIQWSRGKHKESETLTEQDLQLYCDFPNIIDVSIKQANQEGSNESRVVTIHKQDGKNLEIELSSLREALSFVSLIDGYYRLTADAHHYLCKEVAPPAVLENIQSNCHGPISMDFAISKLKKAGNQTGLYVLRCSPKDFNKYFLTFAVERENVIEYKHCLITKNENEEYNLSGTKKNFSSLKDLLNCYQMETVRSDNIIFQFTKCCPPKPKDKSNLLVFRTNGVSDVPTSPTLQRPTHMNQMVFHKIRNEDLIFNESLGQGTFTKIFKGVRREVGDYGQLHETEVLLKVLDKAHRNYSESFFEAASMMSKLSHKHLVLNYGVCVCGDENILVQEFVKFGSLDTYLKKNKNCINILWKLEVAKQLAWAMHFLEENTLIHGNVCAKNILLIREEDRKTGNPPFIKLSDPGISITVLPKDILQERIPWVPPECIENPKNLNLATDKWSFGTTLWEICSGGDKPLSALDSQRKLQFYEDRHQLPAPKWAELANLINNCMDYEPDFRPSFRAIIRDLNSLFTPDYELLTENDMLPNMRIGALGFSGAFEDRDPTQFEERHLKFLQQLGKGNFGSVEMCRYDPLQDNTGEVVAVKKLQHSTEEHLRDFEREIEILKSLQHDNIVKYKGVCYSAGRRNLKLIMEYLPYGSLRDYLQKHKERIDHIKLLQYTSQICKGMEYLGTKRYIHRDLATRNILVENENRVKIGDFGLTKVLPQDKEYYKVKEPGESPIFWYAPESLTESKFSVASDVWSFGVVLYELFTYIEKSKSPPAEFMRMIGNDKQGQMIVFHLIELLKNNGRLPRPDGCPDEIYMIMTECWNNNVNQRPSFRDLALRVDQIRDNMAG
Method notes: JAK2 TR-FRET kinase assay
Format: biochemical
Reported conditions: JAK2 0.025 nM
pIC50: −log10 of the molar value.
Result type: pIC50

Query string: Report pIC50 under test system human JAK2 (Homo sapiens (Human)) for CCC(=O)c1cnc(Nc2cc(-c3cn(C)cn3)ccn2)cc1Nc1cccc(-c2ncn(C)n2)c1OC [Compound 15E] .
Result string: ≤ 6.30

Query string: // output pIC50; input CCC(=O)c1cnc(Nc2cnc(OCCCN3CCCC3)cn2)cc1Nc1cccc(-c2ncn(C)n2)c1OC [Compound 18WW] ; system human JAK2 (Homo sapiens (Human))
Result string: ≤ 6.30

Query string: Specify pIC50 for CCC(=O)c1cnc(Nc2ccc(OC3CCN(C)CC3)cn2)cc1Nc1cccc(-c2ncn(C)n2)c1OC [Compound 18Y] , system human JAK2 (Homo sapiens (Human)).
Result string: 6.30 to 7.30

Query string: Please respond with reported pIC50 (system human JAK2 (Homo sapiens (Human))) for CCC(=O)c1cnc(Nc2nccc(CN(C)C)c2F)cc1Nc1cccc(-c2ncn(C)n2)c1OC [Compound 9TTTT] .
Result string: ≤ 6.30

Query string: Look up and report measured pIC50 (human JAK2 (Homo sapiens (Human))) for the following molecule: CCC(=O)c1cnc(Nc2ccnc(O[C@H]3CCN(C)C3)n2)cc1Nc1cccc(-c2ncn(C)n2)c1OC [Compound 18KK]
Result string: ≤ 6.30

More entries:
Query string: Specify pIC50 for CCC(=O)c1cnc(Nc2ccc(CN3CC(C#N)C3)cn2)cc1Nc1cccc(-c2ncn(C)n2)c1OC [Compound 9FF] , system human JAK2 (Homo sapiens (Human)).
Result string: ≤ 6.30

Query string: Write down measured pIC50 (human JAK2 (Homo sapiens (Human))) for this molecule. CCC(=O)c1cnc(Nc2ccc(CN3CCS(=N)(=O)CC3)cn2)cc1Nc1cccc(-c2ncn(C)n2)c1OC [Compound 9WW]
Result string: 6.30 to 7.30

This collection of values is drawn from patent US20230295119A1.
